meta.source: patent US20080176862A1

Target: human β-Secretase (soluble part, AA1-AA460; sBACE-Fc) (Homo sapiens)
Construct: The soluble part of the human β-Secretase (AA1-AA460) was cloned into the ASP2-Fc10-1-IRES-GFP-neoK mammalian expression vector; made in house
Sequence (P56817 22-460): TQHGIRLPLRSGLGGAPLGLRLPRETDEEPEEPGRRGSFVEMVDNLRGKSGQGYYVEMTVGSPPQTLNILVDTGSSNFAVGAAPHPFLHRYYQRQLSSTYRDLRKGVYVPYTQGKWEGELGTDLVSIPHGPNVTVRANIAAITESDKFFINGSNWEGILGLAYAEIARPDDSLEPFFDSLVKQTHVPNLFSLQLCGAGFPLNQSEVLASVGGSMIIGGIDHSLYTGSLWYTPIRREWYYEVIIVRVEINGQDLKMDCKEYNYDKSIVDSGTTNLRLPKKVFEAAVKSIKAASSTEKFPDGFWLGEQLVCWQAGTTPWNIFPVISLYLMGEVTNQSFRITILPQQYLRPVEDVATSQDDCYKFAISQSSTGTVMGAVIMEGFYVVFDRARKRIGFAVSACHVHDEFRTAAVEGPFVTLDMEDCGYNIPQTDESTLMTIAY
Experiment: TR-FRET assay
Format: biochemical
Conditions: substrate (Europium)CEVNLDAEFK(Qsy7) 100 nM, pH 4.5, 15 min at RT; read-out: IC50 (nM) in TR-FRET assay
Text: The enzyme used in the IGEN Cleavage-, Fluorescent-, TR-FRET- and BiaCore assays is described as follows: The soluble part of the human β-Secretase (AA1-AA460) was cloned into the ASP2-Fc10-1-IRES-GFP-neoK mammalian expression vector. The gene was fused to the Fc domain of IgG1 (affinity tag) and stably cloned into HEK 293 cells. Purified sBACE-Fc is stored in Tris buffer, pH 9.2 and has a purity of 95%. […]
Counter-ions that a name gives are not always drawn.
property: IC50 (nM)
Please state the figure in nM; there is no need to write the unit.

Solved cases (4 shown):
{"compound": "CN1C(=O)C(c2cccc(OS(=O)(=O)c3ccc4c(c3)CCC4)c2)(c2ccc(F)c(-c3cncnc3)c2)N=C1N (centres unmarked) [Example 239]", "result-number": 19}
{"compound": "CCCS(=O)(=O)Oc1ccc(C2(c3ccc(F)c(-c4cncc(OC)c4)c3)N=C(N)N(C)C2=O)cc1 (centres unmarked) [Example 129, hydrochloride]", "result-number": 35}
{"compound": "CCN1C(=O)C(c2ccc(OS(C)(=O)=O)cc2)(c2ccc(F)c(-c3cc(Cl)cc(Cl)c3)c2)N=C1N (centres unmarked) [Example 161]", "result-number": 1680}
{"compound": "COc1ccnc(-c2cc(C3(c4cccc(OS(C)(=O)=O)c4)N=C(N)N(C)C3=O)ccc2F)n1 (centres unmarked) [Example 7]", "result-number": 1200}

Which IC50 value belongs to CCCS(=O)(=O)Oc1cccc(C2(c3ccc(F)c(-c4cccnc4F)c3)N=C(N)N(C)C2=O)c1 (centres unmarked) [Example 96] ?
242
